test: clinical; conditions: human, plasma, oral, 800 mg
experimental readout: AUC (ng·h/mL)
State the answer as a number, implicitly in ng·h/mL.

So what does the record say about AUC for CC(C)(C)NC(=O)[C@@H]1CN(Cc2cccnc2)CCN1C[C@@H](O)C[C@@H](Cc1ccccc1)C(=O)N[C@H]1c2ccccc2C[C@H]1O [IDV, Indinavir] ?
2350

----------
assay: clinical; conditions: human, plasma, oral, 800 mg
experimental readout: Tmax (min)
State the answer as a number, implicitly in min.

So what does the record say about Tmax for CC(C)(C)NC(=O)[C@@H]1CN(Cc2cccnc2)CCN1C[C@@H](O)C[C@@H](Cc1ccccc1)C(=O)N[C@H]1c2ccccc2C[C@H]1O ?
58.8
